- target: Human GLP-1 receptor (Homo sapiens)
- Construct: The full-length cDNA was cloned in pcDNA3.1(+); expressed in transfected cells
- Sequence (P43220 24-463): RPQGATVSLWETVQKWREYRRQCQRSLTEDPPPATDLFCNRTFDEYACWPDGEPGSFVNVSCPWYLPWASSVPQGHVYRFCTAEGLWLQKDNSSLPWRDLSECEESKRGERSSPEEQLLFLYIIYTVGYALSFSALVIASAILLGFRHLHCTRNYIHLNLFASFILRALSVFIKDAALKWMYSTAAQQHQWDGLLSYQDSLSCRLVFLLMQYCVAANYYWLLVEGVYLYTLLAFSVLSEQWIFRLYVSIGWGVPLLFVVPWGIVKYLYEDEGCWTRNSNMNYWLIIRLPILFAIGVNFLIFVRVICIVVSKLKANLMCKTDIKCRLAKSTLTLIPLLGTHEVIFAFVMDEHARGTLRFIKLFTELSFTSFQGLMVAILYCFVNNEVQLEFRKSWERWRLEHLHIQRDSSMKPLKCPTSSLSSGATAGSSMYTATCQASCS
- method: In vitro Human GLP-1 R agonist activity (cyclic AMP determination) in CHO/human GLP1R cells
- Type: cell-based
- settings: 100 nM test compound
Human GLP-1 R activity (cAMP release), % activity with respect to control overview
Value expressed in %; do not type the unit.

Example molecules with recorded Human GLP-1 R activity (cAMP release), % activity with respect to control:
CCc1cc(OC)ccc1-c1ccc(CC(CNC(CCCc2ccccc2)C(N)=O)NC(=O)[C@H](CC(=O)O)NC(=O)[C@H](CO)NC(=O)[C@@H](NC(=O)C(C)(Cc2ccccc2F)NC(=O)[C@@H](NC(=O)CNC(=O)C(CCC#N)NC(=O)C(C)(C)NC(=O)[C@@H](N)Cc2c[nH]cn2)[C@H](C)O)[C@H](C)O)cc1 (single isomer, unassigned) [compound 190]: 87
CCc1cc(OC)ccc1-c1ccc(CC(CNC(CCCc2ccccc2)C(N)=O)NC[C@H](CC(=O)O)NC(=O)[C@H](CO)NC(=O)[C@@H](NC(=O)C(C)(Cc2ccccc2F)NC(=O)[C@@H](NC(=O)CNC(=O)C(CCC#N)NC(=O)C(C)(C)NC(=O)[C@@H](N)Cc2c[nH]cn2)[C@H](C)O)[C@H](C)O)cc1 (single isomer, unassigned) [compound 202]: 99

Quick one: Human GLP-1 R activity (cAMP release), % activity with respect to control for CCc1cc(OC)ccc1-c1ccc(CC(NC(=O)[C@H](CC(=O)O)NC(=O)[C@H](CO)NC(=O)[C@@H](NC(=O)[C@H](Cc2ccccc2)NC(=O)[C@@H](NC(=O)CNC(=O)[C@H](CCC(N)=O)NC(=O)[C@H](C)NC(=O)[C@@H](N)Cc2c[nH]cn2)[C@@H](C)O)[C@@H](C)O)C(=O)NC(CCCc2ccc(Cl)cc2C)C(N)=O)cc1 (single isomer, unassigned) [compound 16] ?
99

Quick one: Human GLP-1 R activity (cAMP release), % activity with respect to control for CCc1cc(OC)ccc1-c1ccc(CC(NC(=O)[C@H](CC(=O)O)NC(=O)[C@H](CO)NC(=O)[C@@H](NC(=O)[C@H](Cc2ccccc2)NC(=O)[C@@H](NC(=O)CNC(=O)C(CCC#N)NC(=O)C(C)(C)NC(=O)[C@@H](N)Cc2c[nH]cn2)[C@@H](C)O)[C@@H](C)O)C(=O)NC(CCCc2ccccc2)C(N)=O)cc1 (single isomer, unassigned) [compound 29] ?
99

Quick one: Human GLP-1 R activity (cAMP release), % activity with respect to control for CCc1cc(OC)ccc1-c1ccc(CC(NC(=O)[C@H](CC(=O)O)NC(=O)[C@H](CO)NC(=O)[C@@H](NC(=O)C(C)(Cc2ccccc2F)NC(=O)[C@@H](NC(=O)CNC(=O)[C@H](CC(C(F)(F)F)C(F)(F)F)NC(=O)C(C)(C)NC(=O)[C@@H](N)Cc2c[nH]cn2)[C@H](C)O)[C@H](C)O)C(=O)NC(CCCc2ccccc2)C(N)=O)cc1 (single isomer, unassigned) [compound 228] ?
99

Quick one: Human GLP-1 R activity (cAMP release), % activity with respect to control for CCc1cc(OC)ccc1-c1ccc(CC(NC(=O)[C@H](CC(=O)O)NC(=O)[C@H](CO)NC(=O)[C@@H](NC(=O)C(C)(Cc2ccccc2F)NC(=O)[C@@H](NC(=O)CNC(=O)C(CCC#N)NC(=O)C(C)(C)NC(=O)[C@@H](N)Cc2c[nH]cn2)[C@H](C)O)[C@@H](C)O)C(=O)NC(CCCc2ccccc2)C(N)=O)cc1 (single isomer, unassigned) [compound 110] ?
85

Quick one: Human GLP-1 R activity (cAMP release), % activity with respect to control for CCc1cc(OC)ccc1-c1ccc(CC(NC(=O)[C@H](CC(=O)O)NC(=O)[C@H](CO)NC(=O)[C@@H](NC(=O)[C@H](Cc2ccccc2)NC(=O)[C@@H](NC(=O)CNC(=O)C(CCC#N)NC(=O)C(C)(C)NC(=O)[C@@H](N)Cc2c[nH]cn2)[C@@H](C)O)[C@@H](C)O)C(=O)NC(CCCc2ccccc2Cl)C(N)=O)cc1 (single isomer, unassigned) [compound 82] ?
99
